Target: T1, 4H591-bH
T1 chain: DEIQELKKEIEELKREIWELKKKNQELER
Assay: two-hybrid library CCNG1;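 note: natural log of median RNA to DNA barcode read ratio; higher means stronger binding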
endpoint-name: interaction score

binder	interaction score
DKNQELKKEIEELERENWELKKKIQELER [4H3613-bH]	-2.09

(I) DKNQELKKKIEELKRENWELEKKIQELKR [4H3926-bH]
(II) DEIQELKKEIEELKREIWELKKKNQELER [4H591-bH]
(III) DENQELKKKIEELKRKIWELKKENQELER [4H1899-bH]
Challenge: # rank by interaction score, ascending (min first) Returns: the labels listed in the requested order.
Response given: I, III, II

The measured values listed here are drawn from paper PMC10397247.
